Listed below are compounds with IC50 for Plasminogen (Homo sapiens, UniProt P00747), each taken from published literature.

- compound: "CC(C)(C)OC(=O)N[C@@](C)(C(=O)N1CC[C@H]1C(=O)N[C@H](C=O)CCCN=C(N)N)c1ccccc1"
  target-or-system: "Plasminogen (Homo sapiens, UniProt P00747)"
  unit: "µM"
  limit-sign: "="
  IC50: 3.9
- compound: "NCc1ccc(C(=O)Nc2ccc(Cl)cc2C(=O)Nc2ccc(Cl)cn2)cc1"
  target-or-system: "Plasminogen (Homo sapiens, UniProt P00747)"
  unit: "µM"
  limit-sign: ">"
  IC50: 11
- compound: "Cn1c(CN2C(=O)CN(c3ccc(F)cc3)C2=O)nc2ccc(C(=O)N[C@H](C#N)CCCCN)cc21"
  target-or-system: "Plasminogen (Homo sapiens, UniProt P00747)"
  unit: "µM"
  limit-sign: "="
  IC50: 100
- compound: "COc1ccc2c(c1)CC[C@H](NS(=O)(=O)c1ccc3ccccc3c1)C(=O)N2CC(=O)N[C@H]1CCCN(C(=N)N)C1O (stereo partly specified)"
  target-or-system: "Plasminogen (Homo sapiens, UniProt P00747)"
  unit: "µM"
  limit-sign: ">"
  IC50: 2.5
- compound: "Cc1cc(C(=O)Nc2ccc(-c3ccccc3S(N)(=O)=O)cc2)n(-c2cc3ccccc3cc2C(=N)N)n1"
  target-or-system: "Plasminogen (Homo sapiens, UniProt P00747)"
  unit: "µM"
  limit-sign: ">"
  IC50: 11
- compound: "N=C(N)NCCC[C@@H](C=O)NC(=O)[C@@H]1CCCN1C(=O)[C@@H]1C[C@@H]2CCCC[C@@H]2CN1"
  target-or-system: "Plasminogen (Homo sapiens, UniProt P00747)"
  unit: "µM"
  limit-sign: "="
  IC50: 0.23
- compound: "N=C(N)c1csc(CNC(=O)[C@@H]2C=CCN2C(=O)[C@@H](CC2CCCCC2)NCC(=O)O)n1"
  target-or-system: "Plasminogen (Homo sapiens, UniProt P00747)"
  unit: "µM"
  limit-sign: "="
  IC50: 0.201
- compound: "CN(CC(=O)O)Cc1ccc(C(=O)Nc2ccc(Cl)cc2C(=O)Nc2ccc(Cl)cn2)cc1"
  target-or-system: "Plasminogen (Homo sapiens, UniProt P00747)"
  unit: "µM"
  limit-sign: ">"
  IC50: 11
- compound: "Nc1nc(-c2ccccn2)nn1C(=O)c1ccccc1"
  target-or-system: "Plasminogen (Homo sapiens, UniProt P00747)"
  unit: "µM"
  limit-sign: ">"
  IC50: 5
- compound: "Cc1ccc(C(=O)n2nc(-c3ccccn3)nc2N)cc1C"
  target-or-system: "Plasminogen (Homo sapiens, UniProt P00747)"
  unit: "µM"
  limit-sign: "="
  IC50: 25.8
- compound: "CN[C@@H](Cc1ccccc1)C(=O)N1CCC[C@H]1C(=O)N[C@](C)(C=O)CCCN=C(N)N"
  target-or-system: "Plasminogen (Homo sapiens, UniProt P00747)"
  unit: "µM"
  limit-sign: "="
  IC50: 850
